Assay: yeast display, Sf9 membrane polyspecificity reagent, FACS + sequencing; frameworks hold sequencing errors

seq: QVQLVESGGGLVQAGGILRLSCAASGSTFTSYAMGWYRQAPGKERELVAAISKSGGSTYYADSVKGRFTISRDNAKNTVYLQMNSLKPEDTALYYCAARYNVRSYSTSRFYYWGQGTLVTVSS
polyreactivity (PSR sort gate): low polyreactivity
//
seq: QVQLVESGAGLVQAGASLRLSCDASAFIYVTYAMGWYRQAPGKEMELVAAITNSGGTTYYADSVKGRFTISRDNAKNTVYLQMNSLKPEDTAVYYCNKPYGGETAHREFDYWGQGTQVTVSS
polyreactivity (PSR sort gate): low polyreactivity

Values were extracted from the nanobody polyreactivity screen of Harvey et al. (2022).
